system: COLO 205; test: NCI tumour cell line growth inhibition, 48 h
Activity calls are given as the source filed them. Cut-off read from the data, not from the text of the source: active = GI50 up to about 1.1 µM and inactive = higher.
property.name: GI50

Recorded GI50, per entry:
# compound, recorded.result
records = [
    ("C[C@H]1CC[C@@H]2[C@@H](C)[C@H]3[C@H](C[C@H]4[C@@H]5CC=C6C[C@@H](O)CC[C@]6(C)[C@H]5CC[C@]34C)N2C1", "16.3 µM (inactive)"),
    ("CCOc1nc(-c2ccccc2)cc(-c2ccc(N3CCOCC3)cc2)c1C#N", "> 100 µM (inactive)"),
    ("Cc1ccccc1NC(=O)C(=O)CC(=O)C1CCOC1=O (stereo not given)", "> 100 µM (inactive)"),
    ("Cc1cc(NS(=O)(=O)c2ccc(NC(=O)c3ccc4nc5ccccc5c(Nc5ccc(S(=O)(=O)Nc6cc(C)on6)cc5)c4c3)cc2)no1", "> 50 µM (inactive)"),
    ("CC(C)c1nc2c(Cl)c3ncccc3cc2[nH]c1=O", "> 100 µM (inactive)"),
]

List reported GI50 for each of these compounds:
1. Cc1ccc(NC(=O)CSC(N)=O)cc1C
2. CN(C)c1nncc2[nH]cnc12
3. Nc1ccc(Nc2c3ccccc3nc3ccccc23)cc1
4. O=S(=O)(c1cnccc1N1CCN(CCO)CC1)N1CCCC1
5. CCOC(=O)CC(NC(=O)c1nc[nH]c1/N=N/N(C)C)C(=O)OCC (stereo not given)

output:
> 100 µM (inactive)
> 100 µM (inactive)
3.78 µM (inactive)
> 100 µM (inactive)
> 100 µM (inactive)

* * *

Kindly state GI50 for each of the entries shown.
tested on: CCRF-CEM; test: NCI tumour cell line growth inhibition, 48 h
The source made the active and inactive calls. No stated cut-off is given here; in the data, active = GI50 up to about 1.1 µM and inactive = higher.

Recorded GI50, per entry:
# molecule, GI50
data = [
    ("C/C1=C/C2OC(=O)C3(C)C2C(CC2(C)OC1=CC2=O)OC3(O)C(C)C (stereo not given)", "23.6 µM (inactive)"),
    ("N#C/C(=C\\c1cc(OCc2ccccc2)c(OCc2ccccc2)cn1)C(N)=O", "32.1 µM (inactive)"),
    ("CC1=C(C#N)C2C(=C(N)Oc3ccccc32)C(N)=N1 (stereo not given)", "30.1 µM (inactive)"),
    ("Cc1ccc(C)c(NC(=O)CC/C(=N\\NC(=O)c2c(O)ccc3ccccc23)C(C)C(=O)c2ccc(O)cc2)c1 (stereo not given)", "15.2 µM (inactive)"),
    ("O=C1CCN/C(=N\\C(=O)C(F)(F)F)N1CCc1c[nH]c2ccccc12", "> 100 µM (inactive)"),
    ("O=c1/c(=C/c2ccccc2[N+](=O)[O-])sc2nnc(-c3cccnc3)n12", "55.8 µM (inactive)"),
    ("Cc1c(-c2ccccc2)c(C#N)c2nnn(-c3cccc(Cl)c3)c(=O)n12", "28.1 µM (inactive)"),
    ("CC(O)c1cc2c(s1)C(=O)c1ccsc1C2=O (stereo not given)", "0.259 µM (active)"),
    ("COC(=O)C12CC(C3CC31)C1CC12 (stereo not given)", "> 100 µM (inactive)"),
]

Next molecule, GI50 to be filled in.
input: Please look up its GI50: "Nc1c(C(=O)N/N=C/c2ccccc2)sc(=S)n1-c1ccccc1"
output: > 100 µM (inactive)
